Listed next: entries and their corresponding IC50.
# STUDY_TARGET: PYK2 (Homo sapiens (Human), UniProt Q14289)
# Sequence (Q14289 whole entry): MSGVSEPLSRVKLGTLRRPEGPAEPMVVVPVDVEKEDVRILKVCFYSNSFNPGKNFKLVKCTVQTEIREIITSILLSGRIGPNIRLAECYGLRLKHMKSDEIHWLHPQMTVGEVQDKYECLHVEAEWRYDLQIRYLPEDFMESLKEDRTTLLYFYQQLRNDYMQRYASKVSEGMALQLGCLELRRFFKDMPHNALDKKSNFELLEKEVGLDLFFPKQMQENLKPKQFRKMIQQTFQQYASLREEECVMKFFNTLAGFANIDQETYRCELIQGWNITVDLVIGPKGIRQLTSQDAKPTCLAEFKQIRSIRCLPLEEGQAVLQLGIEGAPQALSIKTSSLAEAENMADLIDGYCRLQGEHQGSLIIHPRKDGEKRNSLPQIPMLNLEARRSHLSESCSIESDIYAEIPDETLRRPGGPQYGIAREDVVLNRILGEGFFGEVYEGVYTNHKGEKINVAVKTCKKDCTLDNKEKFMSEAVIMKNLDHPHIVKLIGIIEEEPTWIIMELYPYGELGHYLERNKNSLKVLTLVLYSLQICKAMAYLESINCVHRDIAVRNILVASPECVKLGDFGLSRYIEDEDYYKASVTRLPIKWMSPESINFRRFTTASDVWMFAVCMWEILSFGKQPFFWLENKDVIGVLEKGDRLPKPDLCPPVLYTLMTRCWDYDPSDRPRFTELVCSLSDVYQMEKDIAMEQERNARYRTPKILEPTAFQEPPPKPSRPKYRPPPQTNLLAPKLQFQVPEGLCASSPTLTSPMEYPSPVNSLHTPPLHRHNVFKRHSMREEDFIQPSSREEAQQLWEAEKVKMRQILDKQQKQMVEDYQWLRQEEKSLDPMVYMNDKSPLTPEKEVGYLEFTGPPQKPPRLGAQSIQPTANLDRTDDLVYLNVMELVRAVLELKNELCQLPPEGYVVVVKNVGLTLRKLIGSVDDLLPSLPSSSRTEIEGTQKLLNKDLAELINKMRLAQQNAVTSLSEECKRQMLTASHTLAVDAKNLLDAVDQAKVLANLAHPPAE
# EXPERIMENT_SUMMARY: Biochemical assay for PYK2 activity (LANCE TR-FRET, ULight-poly Glu,Ala,Tyr substrate)
# REPORTED_CONDITIONS: GST-tagged PYK2, 40 min reaction

Illustrative cases are given below, each with its answer.
[
  {
    "SMILES_REPR": "CNC(=O)c1ccc2c(c1Nc1nc(Nc3ccc(N4CCOCC4)cc3OC)nc3c1C(C)(C)CN3)OCO2",
    "IC50": "> 1000 nM"
  },
  {
    "SMILES_REPR": "COc1cc(N2CCC(N(C)C)CC2)ccc1Nc1nc2c(c(Nc3ccccc3S(=O)(=O)NC(C)C)n1)CCN2",
    "IC50": "< 20 nM"
  },
  {
    "SMILES_REPR": "COc1cc(N2CCOCC2)ccc1Nc1nc2c(c(Nc3ccccc3S(=O)(=O)NCCN(C)C)n1)C(C)(C)CN2",
    "IC50": "< 50 nM"
  },
  {
    "SMILES_REPR": "COCCCNS(=O)(=O)c1ccccc1Nc1nc(Nc2ccc(N3CCOCC3)cc2OC)nc2c1CCN2",
    "IC50": "< 100 nM"
  },
  {
    "SMILES_REPR": "COc1cc(N2CCOCC2)ccc1Nc1nc2c(c(Nc3ccccc3C(=O)N3CCCC3)n1)CCN2",
    "IC50": "> 1000 nM"
  }
]

Input line: Given the molecule COc1cc(N2CCOCC2)ccc1Nc1nc2c(c(Nc3ccccc3S(=O)(=O)NC3CCCCC3)n1)C(C)(C)CN2 , write its reported IC50.
Output line: < 200 nM

Input line: Given the molecule CNC(=O)c1ccccc1Nc1nc(Nc2cccc3c2OCCO3)nc2c1CCN2 , write its reported IC50.
Output line: < 500 nM

Input line: Given the molecule COc1cc(N2CCOCC2)ccc1Nc1nc2c(c(Nc3ccccc3S(=O)(=O)N(C)C)n1)CCN2 , write its reported IC50.
Output line: < 200 nM
